Overview of recorded growth for various compounds
Tested on: RXF 393 renal
Test description: NCI-60 one-dose screen, 48 h (100 = growth as untreated, 0 = no growth, -100 = all killed)
Condition label: 10 µM unless noted
This is part of a sample that, as a whole, favours compounds with a hit. Of some 83,000 tested, about 20% had one in any assay.
Observed property: growth (%)

- Cn1ccnc1C(=O)/C=C/c1ccc(CC(=O)NC2CCCCC2)cc1: 73.2
- COc1ccc(/C=C/c2nc(Nc3ccc(Cl)cc3)c3ccccc3n2)cc1: 56.6
- COc1ccc(-c2nc(S(=O)(=O)c3ccccc3)c(S(=O)CC(=O)N3CCC(C)CC3)o2)cc1 (centres undefined): 17.2
- N#Cc1c(NC(=O)NCc2ccccc2)sc2c1CCCC2: 0.0173
- COc1cc2nc(-c3ccc(Cl)cc3)cc(OCCCN3CCC(O)CC3)c2cc1OC: 46.3
- Cc1nn(-c2ccccc2)c(Cl)c1/C=N\N=c1/sc2ccccc2n1C: 109
- COc1ccc(/C=C/c2nc(Nc3ccc(S(=O)(=O)NC(C)=O)cc3)c3ccccc3n2)cc1: 103
- O=C1c2ccc3c4c(ccc(c24)C(=O)N1CCCNCc1ccccc1F)C(=O)N(CCCNCc1ccccc1F)C3=O: -87.9
- CN(C)CCn1c2ccc(Br)cc2c2nc3ccccc3nc21: 39.4
- O=C1Nc2cc(Cl)ccc2/C1=C\c1c(-c2ccc(F)cc2)nc2ccccn12: -23.8
- CCOC(=O)/C(C#N)=C1/NNC(=Nc2cccnc2)S1: 110
- N#Cc1cc(-c2nc3ccccc3s2)c(=O)n(NS(=O)(=O)c2ccccc2)c1N: 113
- COc1cc2c(=O)n(CCN(C)C)c3c4cc5c(cc4ccc3c2cc1OC)OCO5: -84.6
- CCOC(=O)C1=C(CCl)NC(=O)NC1c1ccc2c(c1)OCO2 (centres undefined): 39.1
- C=C(C)[C@@H]1CC[C@]2(C(=O)N[C@H](CO)Cc3ccccc3)CC[C@]3(C)[C@H](CC[C@@H]4[C@@]5(C)CCCNC(C)(C)[C@@H]5CC[C@]43C)[C@@H]12: -91.5
- Nc1n[nH]c2cccc(C#Cc3cccc(C(=O)Nc4cc(CN5CCOCC5)cc(C(F)(F)F)c4)c3)c12: 24
- CN(CCN(C)c1ccc(C(=N)N)cc1)c1ccc(C(=N)N)cc1: 118
- COc1ccc(-c2[nH][nH]c(=O)c2-c2nc3ccccc3s2)cc1: 109
- CC(Sc1nc2sc3c(c2c(=O)n1-c1ccc(Cl)cc1)CCCC3)C(=O)Nc1nc(-c2ccc(Br)cc2)cs1 (centres undefined): 101
- CN1CCC(=C(c2ccccc2)c2ccccc2)C(c2ccccc2)C1 (centres undefined): 88
- Cc1cc(C(=O)/C=C/c2ccc[nH]2)ccc1-n1ccc(C(F)(F)F)n1: 21.2
- C=C1C(=O)O[C@H]2[C@H]1CC/C(COC(=O)NCCc1c[nH]c3ccc(OC)cc13)=C\CC[C@@]1(C)O[C@@H]21: -81.7
- CN1CCN(c2ccc(NC3=C(Cl)C(=O)c4ncccc4C3=O)cc2C(F)(F)F)CC1: -71.4
- CCOC(=O)c1cc(C(=O)c2ccc(OC)c(OC)c2)n2ccc(/C=C/c3cc[n+](CC(=O)c4ccc(OC)c(OC)c4)cc3)cc12: 111
- CCNC(=O)Oc1ccc(/C(=C(\C)c2ccccc2)c2ccc(OCCN(CC)CC)cc2)cc1: 70.6
- CCOC(=O)Oc1c(OC)cc(C(=O)c2ccc(OC)c(O)c2OC)cc1OC: -10.1
- NNC(=O)c1ccc(-n2nc(-c3ccccc3)c3ccccc32)cc1: 61.7
- N#Cc1c(NC(=O)NCc2ccccc2)sc2c1CCCCC2: -3.29
- Cc1c(C)c([N+](=O)[O-])c(C)c([N+](=O)[O-])c1C: 108
